# assay.comment: protein stability index of a GFP-peptide fusion (yeast GPS) (PSI 1-4); higher = more stable; sorted into four equal gates, so the index is relative within each strain
# condition.summary: doa10∆
Mark FALSE for protein stability index values under 3, and TRUE for everything at or above.

(Q) Assess whether reported protein stability index for TKPEVASDMSDEDIITI [CDC53] sits at 3 or higher.
(A) FALSE

(Q) Assess whether reported protein stability index for DDDILIIRPILGKVRFA [SRB4] sits at 3 or higher.
(A) FALSE

(Q) Assess whether reported protein stability index for MKSLLTELSNKETTIEK [YIL149C/MLP2] sits at 3 or higher.
(A) TRUE

(Q) Assess whether reported protein stability index for AAKKAMYTLSAQDEVFS [ASC1] sits at 3 or higher.
(A) FALSE

(Q) Assess whether reported protein stability index for SVRTAVFSALKNLISRI [ECM29] sits at 3 or higher.
(A) FALSE

(Q) Assess whether reported protein stability index for VAFVCSPISDSRDELIR [RPN10] sits at 3 or higher.
(A) FALSE

(Q) Assess whether reported protein stability index for PSADGADKKDDSESNSE [ITC1] sits at 3 or higher.
(A) FALSE

(Q) Assess whether reported protein stability index for LQNNSDSESDSDSETNH [SKP1] sits at 3 or higher.
(A) FALSE

(Q) Assess whether reported protein stability index for KTMIKTIEKDKMKIQET [SMC2] sits at 3 or higher.
(A) FALSE

(Q) Assess whether reported protein stability index for ALIENWAADSVSSRVRG [FAS1] sits at 3 or higher.
(A) TRUE

(Q) Assess whether reported protein stability index for RISGLIYEEVRAVLKSF [HHF1] sits at 3 or higher.
(A) TRUE

Recorded values, source the supplement of paper PMC9732359.
